target: T1, monkey GPC3-His protein (monkey); test: ELISA, monkey GPC3-His coated;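 also: Plate-coated antigen at 1 µg/mL, antibody binding 2 h at 37 °C, detected with HRP-labeled secondary antibody and TMB, absorbance at 450 nm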
T1 construct: Bought recombinant protein; also called monkey GPC3 protein
OBSERVED PROPERTY: OD450 at 100 nM (OD450)
Give the number; OD450 is assumed, so skip it.

These solved cases illustrate the format of a correct answer.
1) F2.169.2 (antibody, human IgG1, kappa, V domains shown, Human-murine chimeric antibody) VH: EVQLVETGGGLVQPKGSLKLSCAASGFSFNTNAMNWVRQAPGKGLEWVARIRSKSNNYATYYADSVKDRFTISRDDSQSMLYLQMNNLKTEDTAMYYCVRDGYYVLFAYWGQGTLVTVSA VL: DVLMTQTPLSLPVSLGDQASISCRFSQSIVNSNGNTYLEWFLQKPGQSPKLLIYKVSNRFSGVPDRFSGSGSGTDFTLKISRVEAEDLGVYYCFQGSHVPFTFGTGTKLEIKR = 1.99
2) F4.18.4 (antibody, human IgG1, kappa, V domains shown, Human-murine chimeric antibody) VH: QVQLHQSGAEMAKPGASVNLSCKTSGFTFTDYGISWVKQRTRQGLEWIGDIYPRHINIYYNEKFKDKATLTADRSSSTAYMELRSMTSEDSAVYFCARRGTTGRGALDYWGQGTSLTVSS VL: DILLTQSPAILSVSPGERVSFSCRASQSIGTSIHWYQQRTNGSPRLLIKYAFESISGIPSRFGGSGSRTDFTLTINSVESEDIADYYCQQTYNWPYTFGGGTKLEIKR = 1.9
3) F4.21.16 (antibody, human IgG1, kappa, V domains shown, Human-murine chimeric antibody) VH: DVQLQESGPGLVKPSQSLSLTCSVTGYSITSGYYWNWIRQFPGNKLEWMGYISYDVTVNYNPSLKNRISITRDTSKNQFFLKLNSVTTEDTATYYCATITSVASMDHWGQGTSVTVSS VL: DILMTQTPLSLPVSLGDQASISCRSSQNIVHRNGNTYLEWYLQKPGQSPKLLLYKVSNRFSGVPDRFSGSGSGTDFTLKISRVEAEDLGIYYCFQGSHFPFTFGSGTKLEIKR = 1.08
4) F1.83.6 (antibody, human IgG1, kappa, V domains shown, Human-murine chimeric antibody) VH: QVQLQQSGPELVKPGASVKISCKASGYAFSSSWMNWVKQRPGKGLEWIGRIYPGDGDTNYNGRFKGKATLTVDKSSSTAYMQLSSLTSEDSAVYFCARGGVFTMALDHWGQGTTLTVSS VL: DIQMTQSPSSLSASLGGKVTITCKASQDINKYIAWYQHKPGKGPRLLIHYTSTLQPGIPSRFSGSGSGRDYSFSISNLEPEDIATYYCLQYDNLFTFGGGTKLEIKR = 0.55
5) F1.21.8 (antibody, human IgG1, kappa, V domains shown, Human-murine chimeric antibody) VH: EVQLQQSGPELVKPGASVKISCKTSGFLFTGHYMHWVKSSHGNILDWIGYIYPYNAISFYNQKFKGKATLTVDKSSNTAYMELRSLTSEDSAVYYCARGDYGNYVTAYWGQGTLVTVSA VL: DVLMTQTPLSLPVSLGDQASISCRSSQSIVHSSGNTYLEWYLQKPGQSPKLLIYKVSNRFSGVPDRFSGSGSGTDFTLKISRVEAEDLGVYYCFQGSHLPWTFGGGTKLDIKR = 1.49

Kindly note the recorded OD450 at 100 nM for F3.54.12 (antibody, human IgG1, kappa, V domains shown, Human-murine chimeric antibody) VH: QVQLQQSGAELVRPGASVKLSCKASGYTFTDYEMHWVKQTPVHGLEWIGAIDPETGNTAYIQKFKGKATLTTDKSSSTAYMELRSLTSEDSAVYYCTRFYSYSHWGQGTTLTVSS VL: DVVMTQTPLSLPVSLGDQASISCRSSQSLVHSNGNTYLHWYLQKPGQSPKLLIYKVSNRFSGVPDRFSGSSSGTDFTLKISRVEAEDLGVYFCSQNTHVPPTFGGGTKLEIKR , which is 2.76

Kindly note the recorded OD450 at 100 nM for F2.152.3 (antibody, human IgG1, kappa, V domains shown, Human-murine chimeric antibody) VH: EVQLQQSGPELVKPGASVKMSCKASGYTFTDYYMTWVKQSHGKSLEWIGRVNPRNGDTTYNQKFEGRATLTLDKSLSTAFMQLNSLTSEDSAVYYCINSKGHFDYWGQGTTLTVSS VL: DVLMTQTPLSLPVSLGDQASISCRSSQSIVHSNGNTYLEWFLQKPGQSPKSLIYKVSNRFSGVPDRFSGSGSGTDFTLKISRVEAEDLGVYYCFQGSHVPPTFGAGTKLELKR , which is 2.41

Kindly note the recorded OD450 at 100 nM for F1.110.24 (antibody, human IgG1, kappa, V domains shown, Human-murine chimeric antibody) VH: EVKLVESGGGLVQPGGSLKLSCAASGFTFSDFYMYWVRQTPEKRLEWVAFISNGGGSTYYPDTVKGRFTISRDNVKNTLYLQMSRLKSEDTAMYYCARPDTSWFAYWGQGSLVTVSA VL: DIQMTQTTSSLSASLGDRVTISCRASQDIDNYLNWYQQKPDGTVKVLISYTSRLHSGVPSRFSGSGSGTDYSLTISNLEQEDIATYFCQQGNTLPWTFGGGTKLEIKR , which is 0.41

Kindly note the recorded OD450 at 100 nM for F1.118.4 (antibody, human IgG1, kappa, V domains shown, Human-murine chimeric antibody) VH: QVQLQQSGAELAKPGASVKLSCKASGYSFTSYWIHWVKQRPGQGLEWIGYINPSSGYTKYNQKFKDKATLTADKSSSTAYMQLSSLTYEDSAVYYCARFGSSSFYFDYWGQGTTLTVSS VL: DIVLTQSPASLAVSLGQRATISCRASQSVSSSSYSYMHWYQQKPGQPPKLLIKYASNLDSGVPARFSGSGSGTDFTLNIHPVEEEDTATYYCQHSWEIPAFGGGTKLEIKR , which is 2.14

Kindly note the recorded OD450 at 100 nM for F3.38.7 (antibody, human IgG1, kappa, V domains shown, Human-murine chimeric antibody) VH: QVQLQQSGAELVRPGASVKLSCKASGYTFTDYEIHWVKQTPVLGLEWIGAIDPKTGNTAYNQKFMGKATLTADKSSTTAYMDLRSLTSEDSAVYYCTRYFSFAYWGQGTLVTVSA VL: DVLMTQTPLSLPVSLGDQASISCRSSQTFVHSNGNTYLQWYLQKPGQSPKLLIYKVSNRFSGVPDRFSGSGSGTDFTLKISRVEAEDLGVYYCFQGSHVPYTFGSGTKLEIKR , which is 3.01
